Values from the supplement of paper PMC10567573

Reported protein stability index values follow for various variants
B1: TRIM43 (parent)
chain: YQEIFQQLQRSWVKMDQKSKHLKE

variants of: B1; test: protein stability index of a GFP-peptide fusion (GPS, HEK-293T) (PSI 1-6); higher = more stable; details: c terminus: a fixed tail appended;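 further: lentivirally expressed fusions sorted by FACS into six bins by GFP to DsRed ratio, PSI derived from sequencing read proportions per bin multiplied by bin number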
MEASURE: protein stability index

| SEQUENCE_CHAIN | MEASURE | MEASURED_RESULT |
| --- | --- | --- |
| YQEIFQQLQRSWVKMDQTSKHLKE [K18T] | protein stability index | 2.71 |
| YQEIFQQLQRSWVKMDPKSKHLKE [Q17P] | protein stability index | 2.21 |
| YQEIFMQLQRSWVKMDQKSKHLKE [Q6M] | protein stability index | 2.49 |
| YQEIFQQLQRSWVKMDQKSKHEKE [L22E] | protein stability index | 3.27 |
| YQEIFQQLQRSWVKMDFKSKHLKE [Q17F] | protein stability index | 2.68 |
| YQEIFQQLQRSWVKMDQKSKHLKA [E24A] | protein stability index | 1.89 |
| SQEIFQQLQRSWVKMDQKSKHLKE [Y1S] | protein stability index | 3.7 |
| YQEIFQQLQRSWVKMDQKSKQLKE [H21Q] | protein stability index | 2.28 |
| YQEIFQQSQRSWVKMDQKSKHLKE [L8S] | protein stability index | 2.58 |
| YQEIFQQLQRSWVKMDQKSKHLKI [E24I] | protein stability index | 1.78 |
